All values here come from patent US20250170076A1.

# Assay details: clinical
# Run conditions: human, in vivo, sc, Tmax
Measure: Tmax (h)
API: value field is a number in h; no unit string.

Exercise: Tell me the measured Tmax of N[C@@H](Cc1ccc(O)c(O)c1)C(=O)O [levodopa] , please.
Key: 5

====

# Assay details: clinical
# Run conditions: male, human, in vivo, iv, levodopa total clearance
Measure: clearance

Exercise: clearance for N[C@@H](Cc1ccc(O)c(O)c1)C(=O)O [levodopa] ?
Key: 9.8 to 10 mL/min/kg

====

# Assay details: clinical
# Run conditions: male, human, in vivo, iv
Measure: half-life (h)
Give just the numeric value; h need not be written.

Exercise: Record request: half-life value, item N[C@@H](Cc1ccc(O)c(O)c1)C(=O)O [levodopa]
Key: 1.7
